Attribution: patent US8470828B2

Reported metric: melting point (°C)
Answer in °C, number only, no unit symbol.

- Structure notation: "CS(=O)(=O)CC(=O)N[C@H]1CC[C@H](CCN2CCN(c3nccc4c3OCC4)CC2)CC1"
  Scale unit: "°C"
  melting point: 187
- Structure notation: "O=C(N[C@H]1CC[C@H](CCN2CCN(c3nccc4c3OCC4)CC2)CC1)c1ccc(-c2ccccc2)cc1"
  Scale unit: "°C"
  melting point: 220.5
- Structure notation: "CC(C)C(=O)N[C@H]1CC[C@H](CCN2CCN(c3nccc4c3OCC4)CC2)CC1"
  Scale unit: "°C"
  melting point: 203.5

Turning to the following molecule.
Query: // lookup melting point for `CS(=O)(=O)N[C@H]1CC[C@H](CCN2CCN(c3nccc4c3OCC4)CC2)CC1`
Result: 220

###

The reader will find Ki measurements below, all made with human D3 receptor (Homo sapiens).
Sequence (P35462 whole entry): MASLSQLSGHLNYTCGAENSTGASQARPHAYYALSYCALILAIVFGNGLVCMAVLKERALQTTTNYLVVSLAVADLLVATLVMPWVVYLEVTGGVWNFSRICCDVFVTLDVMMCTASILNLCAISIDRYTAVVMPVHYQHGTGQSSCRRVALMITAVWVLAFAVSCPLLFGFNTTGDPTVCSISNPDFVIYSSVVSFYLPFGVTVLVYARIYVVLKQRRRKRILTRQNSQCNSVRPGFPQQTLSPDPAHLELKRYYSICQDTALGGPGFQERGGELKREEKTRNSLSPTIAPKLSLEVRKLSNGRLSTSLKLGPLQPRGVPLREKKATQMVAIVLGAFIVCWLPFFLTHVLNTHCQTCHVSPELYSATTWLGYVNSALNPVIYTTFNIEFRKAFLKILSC
Answer shape: numeric part, then the unit.

Answered examples (5):
- Compound: "COC(CCC(=O)N[C@H]1CC[C@H](CCN2CCN(c3nccc4c3OCC4)CC2)CC1)OC [Example 63]"
  Ki: "22.1 nM"
- Compound: "O=C(CO)N[C@H]1CC[C@H](CCN2CCN(c3nccc4c3OCC4)CC2)CC1 [Example 28]"
  Ki: "7.76 nM"
- Compound: "O=C(N[C@H]1CC[C@H](CCN2CCN(c3nccc4c3OCC4)CC2)CC1)c1ccc(N2CCOCC2)nc1 [Example 73]"
  Ki: "15 nM"
- Compound: "O=C(CC1CCOCC1)N[C@H]1CC[C@H](CCN2CCN(c3nccc4c3OCC4)CC2)CC1 [Example 8]"
  Ki: "7.49 nM"
- Compound: "CS(=O)(=O)CC(=O)N[C@H]1CC[C@H](CCN2CCN(c3nccc4ccoc34)CC2)CC1 [Example 17]"
  Ki: "4.26 nM"

Query: // lookup Ki for O=C(C[C@H]1COCCO1)N[C@H]1CC[C@H](CCN2CCN(c3nccc4c3OCC4)CC2)CC1 [Example 32]
Result: 10.6 nM

Query: // lookup Ki for COC(CC(=O)N[C@H]1CC[C@H](CCN2CCN(c3nccc4c3OCC4)CC2)CC1)OC [Example 62]
Result: 7.22 nM

Query: // lookup Ki for COCCC(=O)N[C@H]1CC[C@H](CCN2CCN(c3nccc4ccoc34)CC2)CC1 [Example 13]
Result: 7.85 nM

Query: // lookup Ki for O=C(N[C@H]1CC[C@H](CCN2CCN(c3nccc4c3OCC4)CC2)CC1)c1ccccc1 [Example 22]
Result: 3.34 nM

###

The compounds listed here are annotated with their melting point.
Answer in °C, number only, no unit symbol.

Query: // lookup melting point for O=C(N[C@H]1CC[C@H](CCN2CCN(c3nccc4c3OCC4)CC2)CC1)C(F)(F)F [Example 50]
Result: 198.5

Query: // lookup melting point for O=C(C[C@H]1COCCO1)N[C@H]1CC[C@H](CCN2CCN(c3nccc4c3OCC4)CC2)CC1 [Example 32]
Result: 181

Query: // lookup melting point for CC(C)(O)CC(=O)N[C@H]1CC[C@H](CCN2CCN(c3nccc4c3OCC4)CC2)CC1 [Example 46]
Result: 139

Query: // lookup melting point for CS(=O)(=O)CC(=O)N[C@H]1CC[C@H](CCN2CCN(c3nccc4ccoc34)CC2)CC1 [Example 17]
Result: 182

###

target: human D2 receptor (Homo sapiens, UniProt P14416); construct: membrane preparation; assay: Radioligand binding to cloned human D2 receptor expressed in HEK-293 EBNA cells ([3H]-spiperone); details: HEK293 EBNA cell membranes, approximately 0.7 nM [3H]-spiperone, 1 h at RT
Sequence (P14416 whole entry): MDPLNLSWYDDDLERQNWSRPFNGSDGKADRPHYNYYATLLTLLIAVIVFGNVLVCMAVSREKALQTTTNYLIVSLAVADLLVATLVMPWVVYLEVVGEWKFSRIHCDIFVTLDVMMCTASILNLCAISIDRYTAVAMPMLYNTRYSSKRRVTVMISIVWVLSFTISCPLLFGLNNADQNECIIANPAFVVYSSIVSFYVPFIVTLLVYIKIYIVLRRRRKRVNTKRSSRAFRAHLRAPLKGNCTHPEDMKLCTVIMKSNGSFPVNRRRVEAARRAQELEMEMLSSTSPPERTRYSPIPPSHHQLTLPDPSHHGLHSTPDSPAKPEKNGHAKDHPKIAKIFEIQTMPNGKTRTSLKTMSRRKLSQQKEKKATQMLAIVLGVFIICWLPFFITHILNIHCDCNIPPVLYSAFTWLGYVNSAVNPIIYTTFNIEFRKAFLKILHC
Reported metric: pKi
# log scale: pKi equals minus log10 of the concentration in mol/L

Answered examples (3):
- Molecule: "Cc1cc(C(=O)N[C@H]2CC[C@H](CCN3CCN(c4nccc5c4OCC5)CC3)CC2)on1"
  pKi: 6.31
- Molecule: "O=CN[C@H]1CC[C@H](CCN2CCN(c3nccc4c3OCC4)CC2)CC1"
  pKi: 5.95
- Molecule: "CC(=O)N[C@H]1CC[C@H](CCN2CCN(c3nccc4ccsc34)CC2)CC1"
  pKi: 6.41

Query: Report pKi for `COCCC(=O)N[C@H]1CC[C@H](CCN2CCN(c3nccc4ccsc34)CC2)CC1` tested on human D2 receptor (Homo sapiens, UniProt P14416).
Result: 6.40

Query: Report pKi for `CN1CCN(c2ccc(C(=O)N[C@H]3CC[C@H](CCN4CCN(c5nccc6c5OCC6)CC4)CC3)cc2)CC1` tested on human D2 receptor (Homo sapiens, UniProt P14416).
Result: 6.92

Query: Report pKi for `CC(C)(O)CC(=O)N[C@H]1CC[C@H](CCN2CCN(c3nccc4c3OCC4)CC2)CC1` tested on human D2 receptor (Homo sapiens, UniProt P14416).
Result: 6.04

Query: Report pKi for `O=C(N[C@H]1CC[C@H](CCN2CCN(c3nccc4c3OCC4)CC2)CC1)C1(O)CC1` tested on human D2 receptor (Homo sapiens, UniProt P14416).
Result: 6.10

Query: Report pKi for O=C(CC1COCCO1)N[C@H]1CC[C@H](CCN2CCN(c3nccc4ccoc34)CC2)CC1 (mixture of isomers) tested on human D2 receptor (Homo sapiens, UniProt P14416).
Result: 6.01

###

The molecules listed here are annotated with their pKi.
molecular target: human D2 receptor (Homo sapiens, UniProt P14416); construct: membrane preparation; test: Radioligand binding to cloned human D2 receptor expressed in HEK-293 EBNA cells ([3H]-spiperone); details: HEK293 EBNA cell membranes, approximately 0.7 nM [3H]-spiperone, 1 h at RT
# log scale: pKi equals minus log10 of the concentration in mol/L

- Molecule: "COC(CCC(=O)N[C@H]1CC[C@H](CCN2CCN(c3nccc4c3OCC4)CC2)CC1)OC [Example 63]"
  pKi: 5.72
- Molecule: "CN(C)S(=O)(=O)N[C@H]1CC[C@H](CCN2CCN(c3nccc4c3OCC4)CC2)CC1 [Example 95]"
  pKi: 6.19
- Molecule: "O=C(N[C@H]1CC[C@H](CCN2CCN(c3nccc4c3OCC4)CC2)CC1)c1ccc(-n2cccc2)cc1 [Example 66]"
  pKi: 6.62
- Molecule: "N#Cc1ccc(C(=O)N[C@H]2CC[C@H](CCN3CCN(c4nccc5c4OCC5)CC3)CC2)cc1 [Example 72]"
  pKi: 6.20
- Molecule: "O=C(CC1CCCO1)N[C@H]1CC[C@H](CCN2CCN(c3nccc4c3OCC4)CC2)CC1 (mixture of isomers) [Example 29]"
  pKi: 6.45

Turning to the following molecule.
Query: // lookup pKi for O=C(N[C@H]1CC[C@H](CCN2CCN(c3nccc4c3OCC4)CC2)CC1)C1CCOCC1 [Example 7]
Result: 6.45

###

target: human D2 receptor (Homo sapiens); construct: membrane preparation; assay: Radioligand binding to cloned human D2 receptor expressed in HEK-293 EBNA cells ([3H]-spiperone); conditions: HEK293 EBNA cell membranes, approximately 0.7 nM [3H]-spiperone, 1 h at RT
Reported metric: pKi
# log scale: pKi equals minus log10 of the concentration in mol/L

Answered examples (8):
- Compound: "CC(=O)N[C@H]1CC[C@H](CCN2CCN(c3nccc4ccoc34)CC2)CC1"
  Reported metric: "pKi"
  Measurement: 6.16
- Compound: "COCC(=O)N[C@H]1CC[C@H](CCN2CCN(c3nccc4ccoc34)CC2)CC1"
  Reported metric: "pKi"
  Measurement: 5.91
- Compound: "O=C(N[C@H]1CC[C@H](CCN2CCN(c3nccc4c3OCC4)CC2)CC1)C1CCCO1 (mixture of isomers)"
  Reported metric: "pKi"
  Measurement: 5.94
- Compound: "COCCC(=O)N[C@H]1CC[C@H](CCN2CCN(c3nccc4c3OCC4)CC2)CC1"
  Reported metric: "pKi"
  Measurement: 6.00
- Compound: "CS(=O)(=O)CC(=O)N[C@H]1CC[C@H](CCN2CCN(c3nccc4c3OCC4)CC2)CC1"
  Reported metric: "pKi"
  Measurement: 6.17
- Compound: "CC[C@@H](O)CC(=O)N[C@H]1CC[C@H](CCN2CCN(c3nccc4c3OCC4)CC2)CC1"
  Reported metric: "pKi"
  Measurement: 6.06
- Compound: "O=C(CC1CCOCC1)N[C@H]1CC[C@H](CCN2CCN(c3nccc4c3OCC4)CC2)CC1"
  Reported metric: "pKi"
  Measurement: 5.83
- Compound: "COCCC(=O)N[C@H]1CC[C@H](CCN2CCN(c3nccc4ccoc34)CC2)CC1"
  Reported metric: "pKi"
  Measurement: 5.95

Query: // lookup pKi for `O=C(C[C@@H](O)C(F)(F)F)N[C@H]1CC[C@H](CCN2CCN(c3nccc4c3OCC4)CC2)CC1`
Result: 6.03

Query: // lookup pKi for O=C(CC1COCCO1)N[C@H]1CC[C@H](CCN2CCN(c3nccc4c3OCC4)CC2)CC1 (some centres unmarked)
Result: 5.91

Query: // lookup pKi for CCC(C)C(=O)N[C@H]1CC[C@H](CCN2CCN(c3nccc4c3OCC4)CC2)CC1 (mixture of isomers)
Result: 6.15
